# key: entry, value: IC50
target.desc: α4β1 integrin (Homo sapiens, UniProt P05556+P13612)
Construct: endogenous in cells; host or cells: Ramos cells
Sequence (P13612 34-1032): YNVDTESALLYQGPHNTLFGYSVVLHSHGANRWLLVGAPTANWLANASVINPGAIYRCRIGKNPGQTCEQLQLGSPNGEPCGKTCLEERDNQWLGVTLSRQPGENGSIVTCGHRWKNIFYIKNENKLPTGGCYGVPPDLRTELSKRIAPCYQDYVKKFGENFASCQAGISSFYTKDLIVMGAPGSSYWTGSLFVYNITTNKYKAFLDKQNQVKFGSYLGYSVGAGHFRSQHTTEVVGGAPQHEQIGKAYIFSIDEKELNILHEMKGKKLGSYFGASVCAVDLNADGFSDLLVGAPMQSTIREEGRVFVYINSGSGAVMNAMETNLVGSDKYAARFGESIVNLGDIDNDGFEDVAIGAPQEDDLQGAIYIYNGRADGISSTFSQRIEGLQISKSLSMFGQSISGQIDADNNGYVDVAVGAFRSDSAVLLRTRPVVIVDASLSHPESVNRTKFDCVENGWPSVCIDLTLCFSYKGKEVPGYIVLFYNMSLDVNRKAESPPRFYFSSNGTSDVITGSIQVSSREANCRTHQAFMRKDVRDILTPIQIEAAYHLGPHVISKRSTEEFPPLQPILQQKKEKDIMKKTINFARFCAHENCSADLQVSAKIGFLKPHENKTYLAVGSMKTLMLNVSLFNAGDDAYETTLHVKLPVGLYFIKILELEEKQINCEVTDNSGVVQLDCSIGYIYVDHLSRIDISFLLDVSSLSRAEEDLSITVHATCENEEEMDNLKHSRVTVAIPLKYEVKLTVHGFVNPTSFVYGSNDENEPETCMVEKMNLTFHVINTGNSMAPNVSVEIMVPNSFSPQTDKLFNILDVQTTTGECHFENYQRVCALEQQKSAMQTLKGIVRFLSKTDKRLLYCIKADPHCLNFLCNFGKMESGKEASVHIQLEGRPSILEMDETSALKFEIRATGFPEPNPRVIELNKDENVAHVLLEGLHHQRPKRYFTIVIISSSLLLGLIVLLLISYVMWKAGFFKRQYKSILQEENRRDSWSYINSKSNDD
Sequence (P05556 21-798): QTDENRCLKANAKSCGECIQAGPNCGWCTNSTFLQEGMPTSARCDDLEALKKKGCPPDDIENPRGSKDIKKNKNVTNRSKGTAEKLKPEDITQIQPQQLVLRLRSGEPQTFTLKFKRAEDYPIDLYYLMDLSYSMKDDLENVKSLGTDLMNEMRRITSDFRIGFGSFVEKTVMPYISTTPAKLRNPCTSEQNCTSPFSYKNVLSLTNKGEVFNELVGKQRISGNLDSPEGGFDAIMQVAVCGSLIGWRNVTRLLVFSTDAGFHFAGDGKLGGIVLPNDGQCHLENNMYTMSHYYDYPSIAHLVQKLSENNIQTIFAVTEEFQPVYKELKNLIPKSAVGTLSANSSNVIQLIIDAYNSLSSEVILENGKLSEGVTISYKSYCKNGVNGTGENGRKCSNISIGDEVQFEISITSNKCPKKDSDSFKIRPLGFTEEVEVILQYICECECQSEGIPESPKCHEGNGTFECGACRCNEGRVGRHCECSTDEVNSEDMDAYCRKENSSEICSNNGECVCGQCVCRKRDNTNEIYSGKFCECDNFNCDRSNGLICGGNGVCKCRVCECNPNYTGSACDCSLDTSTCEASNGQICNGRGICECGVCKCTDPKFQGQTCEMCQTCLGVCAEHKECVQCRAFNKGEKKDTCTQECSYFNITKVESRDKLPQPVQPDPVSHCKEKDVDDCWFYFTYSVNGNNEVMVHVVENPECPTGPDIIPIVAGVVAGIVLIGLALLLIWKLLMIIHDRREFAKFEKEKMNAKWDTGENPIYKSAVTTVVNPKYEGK
protocol.description: Inhibition of adhesion of calcein AM-labeled Ramos cells to CS1 (fibronectin) peptide-conjugated ovalbumin
Assay type: cell-based
condition.set: Table 4; Ramos cell adhesion to CS1-conjugated ovalbumin, 30 minutes at 37° C.
Note: a bare number is incomplete; add the unit.

Example entries begin here.
Prompt: What value of IC50 has been reported for the following compound? CCCCC(C(=O)N[C@@H](CC(=O)O)c1ccc(-c2ccc(OC)cc2)cc1)n1cc(C)cc(Cc2ccccc2)c1=O (some centres unmarked)
Completion: 300 nM

Prompt: Same question for CCCCC(C(=O)N[C@@H](CC(=O)O)c1ccccc1)n1cc(C)cc(Cc2ccccc2Cl)c1=O (some centres unmarked) please.
Completion: 12 nM

Prompt: Same question for CCCCOc1cccc([C@H](CC(=O)O)NC(=O)C(CCCC)n2cc(C)cc(Cc3ccccc3)c2=O)c1 (some centres unmarked) please.
Completion: 45 nM

Prompt: Same question for CCCCC(C(=O)N[C@@H](CC(=O)O)c1ccc(OC(F)(F)F)cc1)n1cc(C)cc(Cc2ccccc2)c1=O (some centres unmarked) please.
Completion: 27 nM

Prompt: Same question for CCCCC(C(=O)N[C@@H](CC(=O)O)c1cccc(F)c1)n1cc(C)cc(Cc2ccccc2)c1=O (some centres unmarked) please.
Completion: 13 nM

Prompt: Same question for CCCCC(C(=O)N[C@@H](CC(=O)O)c1cc(C)ccc1C)n1cc(C)cc(Cc2ccccc2)c1=O (some centres unmarked) please.
Completion: 300 nM

Further cases:
Prompt: What value of IC50 has been reported for the following compound? CCCCC(C(=O)N[C@@H](CC(=O)O)c1ccc(OC)c(C)c1C)n1cccc(Cc2ccccc2)c1=O (some centres unmarked)
Completion: 300 nM

Prompt: Same question for CCCCC(C(=O)N[C@@H](CC(=O)O)c1cc(F)cc(F)c1)n1cc(C)cc(Cc2ccccc2)c1=O (some centres unmarked) please.
Completion: 25 nM

Prompt: Same question for CCCCC(C(=O)N[C@@H](CC(=O)O)c1cccc(C(F)(F)F)c1)n1cc(C)cc(Cc2ccccc2)c1=O (some centres unmarked) please.
Completion: 250 nM

Prompt: Same question for CCCCC(C(=O)N[C@@H](CC(=O)O)c1ccccc1)n1cc(C)cc(Cc2ccccc2)c1=O (some centres unmarked) please.
Completion: 10 nM

Prompt: Same question for CCCCC(C(=O)N[C@@H](CC(=O)O)c1cccc(C(F)F)c1)n1cc(C)cc(Cc2ccccc2)c1=O (some centres unmarked) please.
Completion: 20 nM

Prompt: Same question for CCCCC(C(=O)N[C@@H](CC(=O)O)c1ccc2c(c1)CCC2)n1cc(C)cc(Cc2ccc3ccccc3c2)c1=O (some centres unmarked) please.
Completion: 283 nM

Prompt: Same question for CCCCC(C(=O)N[C@@H](CC(=O)O)c1cccc(OC(C)C)c1)n1cc(C)cc(Cc2ccc(F)cc2Cl)c1=O (some centres unmarked) please.
Completion: 17 nM

Prompt: Same question for CCCCC(C(=O)N[C@@H](CC(=O)O)c1cccc(OCC)c1)n1cc(C)cc(Cc2ccccc2)c1=O (some centres unmarked) please.
Completion: 35 nM

* * *

# key: entry, value: pIC50
target.desc: α4β1 integrin (Homo sapiens, UniProt P05556+P13612)
Construct: endogenous in cells; host or cells: Ramos cells
protocol.description: Inhibition of adhesion of calcein AM-labeled Ramos cells to CS1 (fibronectin) peptide-conjugated ovalbumin
Assay type: cell-based
condition.set: Table 4; Ramos cell adhesion to CS1-conjugated ovalbumin, 30 minutes at 37° C.
Give only the number. pIC50 is defined as minus log10 of concentration in molar units.

Prompt: What value of pIC50 has been reported for the following compound? CCCCC(C(=O)N[C@@H](CC(=O)O)c1ccc(OC)c(C)c1)n1cc(C)cc(Cc2ccccc2)c1=O (stereo partly shown)
Completion: 8.05

Prompt: Same question for CCCCC(C(=O)N[C@@H](CC(=O)O)c1ccccc1)n1cc(C)cc(Cc2cccc3ccccc23)c1=O (stereo partly shown) please.
Completion: 6.46

Prompt: Same question for CCCCC(C(=O)N[C@@H](CC(=O)O)c1ccc(OC)c(OCC)c1)n1cc(C)cc(Cc2ccccc2)c1=O (stereo partly shown) please.
Completion: 8.40

Prompt: Same question for CCCC[C@@H](C(=O)N[C@@H](CC(=O)O)c1ccc2c(c1)OCO2)n1cc(C)c(O)c(Cc2ccccc2)c1=O please.
Completion: 6.70

Prompt: Same question for CCCCC(C(=O)N[C@@H](CC(=O)O)c1ccccc1)n1cc(C)cc(Cc2ccccc2C)c1=O (stereo partly shown) please.
Completion: 7.60

Further cases:
Prompt: What value of pIC50 has been reported for the following compound? CCCCC(C(=O)N[C@@H](CC(=O)O)c1cccc(-c2ccccc2)c1)n1cc(C)cc(Cc2ccccc2)c1=O (stereo partly shown)
Completion: 6.60

Prompt: Same question for CCCC[C@@H](C(=O)N[C@@H](CC(=O)O)c1ccc(-c2c(OC)cccc2OC)cc1)n1cc(C)cc(Cc2ccccc2)c1=O please.
Completion: 6.70

Prompt: Same question for CCCCC(C(=O)N[C@@H](CC(=O)O)c1ccc(C(C)C)cc1)n1cc(C)cc(Cc2ccccc2)c1=O (stereo partly shown) please.
Completion: 6.80

Prompt: Same question for CCCCC(C(=O)N[C@@H](CC(=O)O)c1cccc(OC(C)C)c1)n1cc(C)cc(Cc2ccc3ccccc3c2)c1=O (stereo partly shown) please.
Completion: 7.70

Prompt: Same question for CCCC[C@@H](C(=O)N[C@@H](CC(=O)O)c1cc(OC)cc(OC)c1)n1cc(C)cc(Cc2ccccc2)c1=O please.
Completion: 8.00

Taken from patent US20030199692A1.
